Readings of hCRHR1 EC50 (nM); HTRF cAMP assay, CHO-K1 cells stably expressing hCRHR1 for the listed binders
- SYSTEM TESTED: T1, human corticotropin-releasing hormone receptor 1 (human, UniProt P34998 24-415)
- T1 sequence (looked up): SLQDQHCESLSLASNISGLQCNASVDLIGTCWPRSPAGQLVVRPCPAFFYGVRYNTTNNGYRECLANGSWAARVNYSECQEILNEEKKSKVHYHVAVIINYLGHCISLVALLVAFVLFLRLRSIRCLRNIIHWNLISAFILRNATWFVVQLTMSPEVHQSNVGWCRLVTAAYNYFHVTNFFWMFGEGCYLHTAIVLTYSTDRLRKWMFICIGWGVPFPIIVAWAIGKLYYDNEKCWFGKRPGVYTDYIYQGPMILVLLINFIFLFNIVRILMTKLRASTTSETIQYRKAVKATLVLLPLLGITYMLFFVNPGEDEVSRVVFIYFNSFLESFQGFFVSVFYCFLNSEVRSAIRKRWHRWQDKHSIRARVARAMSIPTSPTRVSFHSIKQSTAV
- ASSAY OVERVIEW: cell-based or functional assay
Non-standard residues stand in square brackets, D forms with d. No end group written: not given here. NMeI = CC[C@H](C)[C@H](NC)C(=O)O; lip = not defined here

Worked set:
{"BINDER": "IVLSLDVPIGLK(lip)QILLEQARARAAREQATTNAEILAEV-NH2 (not fully specified; reading uncertain) [SEQ ID NO: 261]", "MEASURED VALUE": "> 5000 nM"}
{"BINDER": "[NMeI]VLSLDVPIGLLQILLEQARARAAREQAKTNAEILAEV-NH2 (not fully specified (residue 29); also: lipid and spacer on Lys29 not given here) [SEQ ID NO: 5]", "MEASURED VALUE": "> 5000 nM"}

Q: For lip-IVLSLDVPIGLLQILLEQARARAAREQATTNAEILAEV-NH2 (not fully specified; reading uncertain) [SEQ ID NO: 260] , what is its reported hCRHR1 EC50 (nM); HTRF cAMP assay, CHO-K1 cells stably expressing hCRHR1?
Result: 110 nM

Q: Recorded hCRHR1 EC50 (nM); HTRF cAMP assay, CHO-K1 cells stably expressing hCRHR1 for PVLSLDVPIGLLQILLEQARARAAREQAK(lip)TNAEILAEV-NH2 (not fully specified; reading uncertain) [SEQ ID NO: 7] , please?
Result: > 5000 nM

Q: Bench note: what hCRHR1 EC50 (nM); HTRF cAMP assay, CHO-K1 cells stably expressing hCRHR1 did [NMeI]VLSLDVPIGLLQILLEQARARAAREQATKNAEILAEV-NH2 (not fully specified (residue 30); printed as [MeI]VLSLDVPIGLLQILLEQARARAAREQAT[K*]NAEILAEV(NH_2); also: lipid and spacer on Lys30 not given here) [SEQ ID NO: 6, [MeI]VLSLDVPIGLLQILLEQARARAAREQAT[K*]NAEILAEV(NH2)] show?
Result: > 5000 nM

Q: Query: hCRHR1 EC50 (nM); HTRF cAMP assay, CHO-K1 cells stably expressing hCRHR1; subject: IVLSLDVPIGLLQILLEQARARAAREQAK(lip)TNAEILAEV-NH2 (not fully specified; reading uncertain) [SEQ ID NO: 3 (Lipidated UCN2 with X^36 = E; X^40 = E) (reference 1)]
Result: > 5000 nM

Q: Quick one: hCRHR1 EC50 (nM); HTRF cAMP assay, CHO-K1 cells stably expressing hCRHR1 for [NMeI]VLSLDVPIGLLQILLEQEKQEKEKQQAK(lip)TNAQILAQV-NH2 (not fully specified; reading uncertain) [SEQ ID NO: 9 (prior art peptide)] ?
Result: 510 nM

Q: If you can, please state the reported hCRHR1 EC50 (nM); HTRF cAMP assay, CHO-K1 cells stably expressing hCRHR1 value of K(lip)IVLSLDVPIGLLQILLEQARARAAREQATTNAEILAEV-NH2 (not fully specified; reading uncertain) [SEQ ID NO: 11 (prior art peptide)] .
Result: 670 nM

Q: Form field: reported hCRHR1 EC50 (nM); HTRF cAMP assay, CHO-K1 cells stably expressing hCRHR1 of IVLSLDVPIGLLQILLEQARARAAREQAK(lip)TNARILARV-NH2 (not fully specified; reading uncertain) [SEQ ID NO: 2 (lipidated version of native UCN2)]
Result: > 5000 nM
